All values here come from patent US20050256058A1.

Examples of binders with documented pIC50 follow.
TEST TARGET: T1, schistosome legumain SmAE (Schistosoma mansoni asparaginyl endopeptidase) (Schistosoma mansoni), P09841
T1 chain: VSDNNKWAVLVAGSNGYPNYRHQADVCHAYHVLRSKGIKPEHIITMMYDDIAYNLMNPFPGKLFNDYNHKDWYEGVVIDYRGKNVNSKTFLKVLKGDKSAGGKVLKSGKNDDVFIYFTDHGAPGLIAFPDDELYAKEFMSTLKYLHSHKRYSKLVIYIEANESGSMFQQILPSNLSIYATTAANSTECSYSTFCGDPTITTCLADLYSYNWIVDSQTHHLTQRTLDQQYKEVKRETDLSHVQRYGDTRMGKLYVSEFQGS
ASSAY INFO: cell-based or functional assay
pIC50: −log10 of the molar value. Square brackets hold non-standard residues; d marks the D form. * marks the point of attachment. Cbz = O=C(OCc1ccccc1)*
EXPERIMENTAL READOUT: pIC50

[[record]]
binder = "Cbz-Ala-Ala-[AAsn]-{CH:CH‑CON(Bzl)‑2‑CH2‑Napth} [Cbz-Ala-Ala-AAsn-CH═CH-CON(Bzl)-2-CH2-Napth]"
experimental_readout = "pIC50"
endpoint_value = 7.15

[[record]]
binder = "Cbz-Ala-Ala-[AAsn]-{CH:CH‑CONHCH2CH2Ph} [Cbz-Ala-Ala-AAsn-CH═CH-CONHCH2CH2Ph]"
experimental_readout = "pIC50"
endpoint_value = 6.22

[[record]]
binder = "AAN (modifications not checked) [Cbz-Ala-Ala-AAsn-CH═CH-CONHPh]"
experimental_readout = "pIC50"
endpoint_value = 6.15

[[record]]
binder = "AAN (modifications not checked) [Cbz-Ala-Ala-AAsn-CH═CH-CO-isoindoline]"
experimental_readout = "pIC50"
endpoint_value = 6.52

